Listing of recorded EC50 of antibody induced CDC effect by entry.
Target: T1, human CD276 protein (human, UniProt Q5ZPR3 29-534)
T1 sequence (looked up): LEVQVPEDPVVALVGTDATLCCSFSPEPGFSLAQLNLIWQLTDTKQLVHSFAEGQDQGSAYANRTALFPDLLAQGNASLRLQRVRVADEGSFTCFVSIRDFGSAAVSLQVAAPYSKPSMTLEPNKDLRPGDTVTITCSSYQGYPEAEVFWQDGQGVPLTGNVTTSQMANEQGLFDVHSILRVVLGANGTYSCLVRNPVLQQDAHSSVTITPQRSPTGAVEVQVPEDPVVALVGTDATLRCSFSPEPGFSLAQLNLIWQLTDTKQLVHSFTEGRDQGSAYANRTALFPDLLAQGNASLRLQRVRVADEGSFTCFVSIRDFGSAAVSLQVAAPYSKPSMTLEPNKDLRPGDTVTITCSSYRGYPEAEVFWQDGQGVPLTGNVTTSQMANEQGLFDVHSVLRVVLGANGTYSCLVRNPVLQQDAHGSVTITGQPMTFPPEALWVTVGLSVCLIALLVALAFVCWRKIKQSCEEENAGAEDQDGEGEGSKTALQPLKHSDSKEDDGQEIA
Assay: cell-based or functional assay
Form entry: value (nM) — number only.

Below are worked cases with known answers.
- binder: "7-E1-F8-F6 (human IgG1 chimeric antibody) (antibody, V domains shown, human IgG1 chimeric antibody of the mouse clone) VH: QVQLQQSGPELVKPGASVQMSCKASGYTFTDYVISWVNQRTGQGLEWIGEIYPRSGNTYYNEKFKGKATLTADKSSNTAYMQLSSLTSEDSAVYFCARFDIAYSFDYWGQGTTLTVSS VL: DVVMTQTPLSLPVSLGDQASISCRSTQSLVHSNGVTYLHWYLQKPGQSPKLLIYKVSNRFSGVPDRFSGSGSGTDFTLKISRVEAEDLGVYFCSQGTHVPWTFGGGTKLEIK"
  value: 1.69
- binder: "MGC018 (antibody, V domains shown) VH: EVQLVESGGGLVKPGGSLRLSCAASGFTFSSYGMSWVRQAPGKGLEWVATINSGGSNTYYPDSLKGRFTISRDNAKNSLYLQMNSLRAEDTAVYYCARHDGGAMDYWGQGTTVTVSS VL: DIQMTQSPSSLSASVGDRVTITCRASESIYSYLAWYQQKPGKAPKLLVYNTKTLPEGVPSRFSGSGSGTDFTLTISSLQPEDFATYYCQHHYGTPPWTFGQGTRLEIKR"
  value: 1.67

Now consider the entry below.
Req: Supply measured EC50 of antibody induced CDC effect of 20-A2-D10-G8 (human IgG1 chimeric antibody) (antibody, V domains shown, human IgG1 chimeric antibody of the mouse clone) VH: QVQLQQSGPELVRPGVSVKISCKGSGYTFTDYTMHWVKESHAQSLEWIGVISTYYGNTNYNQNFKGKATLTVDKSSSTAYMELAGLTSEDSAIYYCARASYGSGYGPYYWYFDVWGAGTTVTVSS VL: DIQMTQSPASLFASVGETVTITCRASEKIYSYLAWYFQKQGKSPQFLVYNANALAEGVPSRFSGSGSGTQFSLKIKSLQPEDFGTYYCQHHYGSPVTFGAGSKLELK in your reply.
Resp: 1.92
